Catalogue of whole-cell filipin (z-score) readings, one per entry.
- System: A431
- test: whole-cell filipin (free cholesterol) integrated intensity, Z-score; higher = more cholesterol staining
- conditionDetails: compound concentration in added solution (µM; 5 µl added to 20 µl cells): 10; 18 h
Where a name gives a salt, the structure may show the parent alone.

{"columns": ["molecule", "target", "val"],
 "data": [
  ["Cc1nnc(NS(=O)(=O)c2ccc(N)cc2)s1 [Sulfamethizole]", "A431", -0.626],
  ["CCN1CCCC1CNC(=O)c1cc(S(=O)(=O)CC)c(N)cc1OC (stereo not drawn) [Amisulpride]", "A431", -0.77],
  ["CCCC(=O)Nc1ccc(OCC(O)CNC(C)C)c(C(C)=O)c1 (stereo not drawn) [Acebutolol hydrochloride]", "A431", -0.712],
  ["COC1=C(OC)C(=O)C(CCCCCCCCCCO)=C(C)C1=O [Idebenone]", "A431", -0.893],
  ["CC(C)(C)C(=O)OCOC(=O)[C@@H]1N2C(=O)[C@@H](/N=C/N3CCCCCC3)[C@H]2SC1(C)C [Pivmecillinam hydrochloride]", "A431", -0.185]
]}

Exercise: Identify the measured whole-cell filipin (z-score) of O=C(CCNNC(=O)c1ccncc1)NCc1ccccc1 [Nialamide] for A431.
Key: -0.078

Exercise: Any idea what whole-cell filipin (z-score) came out for CN(Cc1cnc2nc(N)nc(N)c2n1)c1ccc(C(=O)N[C@@H](CCC(=O)O)C(=O)O)cc1 (racemic) [Amethopterin (R,S)] on A431?
Key: 0.379

Exercise: API: value(readout=whole-cell filipin (z-score), system=A431) for record Clc1cccc(Cl)c1NC1=NCCN1 [Clonidine hydrochloride]
Key: -0.585

Every entry's value here was drawn from the supplement of paper PMC6607015.
